Target: T1, recombinant human VISTA (His-tagged) (human, UniProt Q9H7M9 33-194)
T1 construct: bought soluble protein (Sino Biological); also called hVISTA; human VISTA polypeptide
Experiment: ELISA, plate coated with human VISTA
property-label: pEC50
In plain terms, pEC50 is the concentration in mol/L turned into minus its base-10 logarithm.

Ask: Return reported pEC50; argument: anti-VISTA clone V4-C30 IgG1 (antibody, V domains shown) VH: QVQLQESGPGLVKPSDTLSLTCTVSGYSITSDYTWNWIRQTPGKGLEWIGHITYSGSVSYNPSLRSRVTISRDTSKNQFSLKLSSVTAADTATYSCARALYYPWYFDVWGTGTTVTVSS VL: EIVLTQSPATLSLSPGERATLSCRASSSVGYIHWYQQKPGQAPRPLIYATYYRATGIPARFSGSGSGTDNTLTISSLEPEDSAVYYCQQWSSYPPITFGGGTKLEVKR
Result: 10.50

Ask: What do you have for anti-VISTA clone V4-C24 IgG1 (antibody, V domains shown) VH: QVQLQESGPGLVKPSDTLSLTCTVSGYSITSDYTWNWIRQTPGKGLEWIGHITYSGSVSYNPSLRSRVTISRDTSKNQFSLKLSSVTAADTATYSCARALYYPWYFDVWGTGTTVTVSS VL: EIVLTQSPATLSLSPGERATLSCRASSSVGYIHWYQQKPGQAPRPLIYTTSYRATGIPARFSGSGSGTDNTLTISSLEPEDSAVYYCQQWSSYPPITFGGGTKLEVKR ?
Result: 10.57

Ask: What do you have for anti-VISTA clone V4-C31 IgG1 (antibody, V domains shown) VH: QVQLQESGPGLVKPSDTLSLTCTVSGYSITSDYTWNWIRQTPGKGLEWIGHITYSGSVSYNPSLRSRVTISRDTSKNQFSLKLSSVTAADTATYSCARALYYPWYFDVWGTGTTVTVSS VL: EIVLTQSPATLSLSPGERATLSCRASSSVGYIHWYQQKPGQAPRPLIYATYYRTTGIPARFSGSGSGTDNTLTISSLEPEDSAVYYCQQWSSYPPITFGGGTKLEVKR ?
Result: 10.39
